Below, each of the compounds is paired with its reported z-score value.
assay: FRG1 promoter luciferase signal modulators, primary screen, FRG1 inhibition for FSHD, cell-based, C2C12 myotubes, firefly/Renilla luciferase, luminescence (AID 1084); details: higher = more signal, called active from +8 up or from −8 down
Give the value as a plain number.

compound CC(C)(C)OC(=O)CC[C@@]1(C(N)=O)N=C(c2ccc(OCCCO)cc2)O[C@@H]1c1ccccc1CN=[N+]=[N-] , z-score observed: 4.09

compound O=C1C2C=CC(C(O)C3CCCCC3)N(Nc3ccccc3F)C2C(=O)N1c1ccccc1 (stereo not drawn) , z-score observed: -0.227

compound C=CCNC(=O)[C@H]1[C@@H]2C(=O)O[C@@H](c3ccccc3)[C@@H](c3ccccc3)N2[C@@H](c2ccc(OCCO)cc2)[C@]12C(=O)N(C(=O)OCCOC)c1ccc(C#CCC(C(=O)OC)C(=O)OC)cc12 , z-score observed: 0.9

---

test system: Human papillomavirus type 1a protein E7 (residues 44-93); test: HPV1a E7 fragment binders on microarrays, primary screen, biochemical, small-molecule microarray, residues 44-93, 635 nm fluorescence (AID 1108); conditions: small-molecule microarray binding, fluorescence 635 nm; higher = more signal;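 note: E7 fragment applied at 1 µg/mL in TBST for 1 h at 4 C; score combines spot fluorescence with its signal to noise ratio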
Binary call on composite z-score: label 1 from 1 upward, label 0 beneath that.

// known answers, use as guide
- compound: "CC(C)(C)OC(=O)CC[C@@]1(C(=O)N2CCOCC2)N=C(c2ccc(OCCCO)cc2)O[C@@H]1c1ccccc1CN=[N+]=[N-]"
  system_under_test: "Human papillomavirus type 1a protein E7 (residues 44-93)"
  label_class: "label 1"
- compound: "C=CCOC(=O)[C@H]1[C@@H]2C(=O)O[C@@H](c3ccccc3)[C@@H](c3ccccc3)N2[C@@H](c2ccc(OCCOC(=O)[C@@H]3C[C@@H]4C(=O)N[C@@H](Cc5ccccc5)C(=O)N4[C@@H]3c3ccc(O)cc3)cc2)[C@]12C(=O)Nc1ccc(I)cc12"
  system_under_test: "Human papillomavirus type 1a protein E7 (residues 44-93)"
  label_class: "label 1"

Problem: Given [N-]=[N+]=Nc1ccccc1C[C@@]1(C(=O)NCC(O)CO)N=C(c2ccc(OCCCO)cc2)O[C@@H]1c1ccccc1N=[N+]=[N-] (stereo not given in full) , state whether its composite z-score is at least 1.
Result: label 0

Problem: Given [N-]=[N+]=Nc1ccccc1C[C@]1(C(N)=O)COC(c2ccc(OCCCO)cc2)=N1 , state whether its composite z-score is at least 1.
Result: label 0

---

experiment: binders of probe aHhip on microarray, primary screen, stem cell growth factor project, biochemical, small-molecule microarray, fluorescence 635/667 (AID 1087); conditions: higher = more signal;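 note: score merges spot fluorescence at 667nm with spot signal to noise ratio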
quantity_measured: composite z-score

Would you please look over these solved cases?
- compound: "C=C(CCCC)C(=O)CC[C@@H](OC(C)=O)c1ccc(OCCO)cc1"
  composite z-score: -0.134
- compound: "COc1ccc([Si](C)(C)[C@H]2[C@H](CC(=O)N3CCC[C@H]3CO)O[C@@]3(C(=O)N(C)c4c(Br)cc(C)cc43)[C@@H]2C)cc1"
  composite z-score: 0.104

compound C=CCOC(=O)[C@@H]1[C@H]2C(=O)O[C@H](c3ccccc3)[C@H](c3ccccc3)N2[C@H](c2ccc(OCCOC(=O)[C@H]3C[C@H]4C(=O)N[C@@H](CCCCN(C)C)C(=O)N4[C@H]3c3cccc(OCCO)c3)cc2)[C@@]12C(=O)Nc1ccccc12 , composite z-score observed: -0.166

compound COc1cccc(C)c1NC(=O)O[C@H]1[C@H](OC(=O)Nc2ccccc2-c2ccccc2)[C@@H](OC(=O)Nc2ccccc2-c2ccccc2)[C@@H](OC)O[C@@H]1CO , composite z-score observed: 0.053

compound O=C(c1ccccc1)N1Cc2ccccc2C[C@@]2(N=C(c3ccc(OCCCO)cc3)O[C@H]2c2ccccc2)C1=O , composite z-score observed: 0.201

compound O=C1O[C@@H](c2ccccc2)[C@@H](c2ccccc2)N2[C@@H](c3ccc(OCCO)cc3)[C@]3(C(=O)Nc4ccc(C#CC5=CCCCC5)cc43)[C@@H](C(=O)Nc3nc4ccccc4s3)[C@H]12 , composite z-score observed: -1.07

compound CC(C)[Si]1(C(C)C)OCc2cc(-c3ccc(-c4ccc(Cl)c(Cl)c4)o3)nc(-c3ccc(Oc4ccccc4)cc3)c21 , composite z-score observed: -0.306

compound C=CCNC(=O)[C@@H]1[C@H]2C(=O)O[C@H](c3ccccc3)[C@H](c3ccccc3)N2[C@H](c2ccc(O)cc2)[C@@]12C(=O)Nc1ccc(C#CC3=CCCCC3)cc12 , composite z-score observed: -0.426

compound CCCCC(=C=CC[C@H](O)c1cccc(OCCO)c1)C[C@H](O)c1cc(Cl)cc(Cl)c1O , composite z-score observed: -0.197

compound COC(=O)C(CC#Cc1ccc2c(c1)[C@]1(C(=O)N2)[C@H](c2ccc(OCCO)cc2)N2[C@H](c3ccccc3)[C@H](c3ccccc3)OC(=O)[C@H]2[C@@H]1C(N)=O)C(=O)OC , composite z-score observed: 0.0826

compound O=C(NC1CC1)[C@@H]1c2ccccc2C(=O)N(C2CCCCC2)[C@H]1c1ccc(CO)cc1 , composite z-score observed: -0.228

compound COc1ccc(C(=O)Nc2ccc(CN3C(=O)[C@@]4(O[C@@H](CC(=O)N(CCO)Cc5ccccc5)[C@H]([Si](C)(C)c5ccc(OC)cc5)[C@H]4C)c4ccccc43)cc2)cc1 , composite z-score observed: -0.0074

compound NCCCCCCNC(=O)[C@@H]1C[C@@H]2C(=O)NCC(=O)N2[C@@H]1c1cccc(OCCO)c1 , composite z-score observed: 0.385

compound [N-]=[N+]=Nc1ccccc1C[C@@]1(C(=O)NCC(O)CO)N=C(c2ccc(OCCCO)cc2)O[C@@H]1c1ccccc1N=[N+]=[N-] (stereo partly specified) , composite z-score observed: -0.134

compound O=C1c2ccccc2[C@](Cc2ccccc2I)(C(=O)NCCN2CCOCC2)[C@H](c2ccc(CO)cc2)N1Cc1ccccc1C(F)(F)F , composite z-score observed: 0.0156

compound COC(=O)[C@H](Cc1ccccc1)N1CC(C)(OC)O[C@@H](Cc2ccccc2)[C@H]1/C=C/C1CC1 (stereo partly specified) , composite z-score observed: -0.331
